Recorded measurements of inhibition at 1 µM, one per entry
Target: serotoninergic 5-HT7 receptor (Homo sapiens, UniProt P34969)
Sequence (P34969 whole entry): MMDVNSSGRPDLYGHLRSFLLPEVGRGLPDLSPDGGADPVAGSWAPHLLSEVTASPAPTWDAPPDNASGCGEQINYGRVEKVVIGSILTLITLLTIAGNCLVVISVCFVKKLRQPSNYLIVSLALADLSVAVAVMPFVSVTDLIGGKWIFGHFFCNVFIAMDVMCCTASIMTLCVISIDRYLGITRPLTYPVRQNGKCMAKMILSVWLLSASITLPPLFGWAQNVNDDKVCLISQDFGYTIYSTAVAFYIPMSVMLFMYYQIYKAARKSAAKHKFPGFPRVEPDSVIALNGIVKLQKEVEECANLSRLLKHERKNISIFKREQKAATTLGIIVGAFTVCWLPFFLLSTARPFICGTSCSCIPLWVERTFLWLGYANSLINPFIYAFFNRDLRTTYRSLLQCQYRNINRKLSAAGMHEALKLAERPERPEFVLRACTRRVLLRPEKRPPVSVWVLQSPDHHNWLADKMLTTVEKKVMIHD
Assay: Binding assay 5-HT7 (h), [3H]LSD, CHO cells
Parameters: expressed in transfected cells; host or cells: CHO cells
Details: read-out: 5-HT7
Hi! Could you send only the number? It should be in %, unit omitted.

Would you please look over these solved cases?
[[record]]
samplesmiles = "O=S(=O)(NCCCN1CCN(c2cccc3c2OCCO3)CC1)c1ccc(F)cc1"
observable = "inhibition at 1 µM"
recordedmeasurement = 83

[[record]]
samplesmiles = "O=S(=O)(NCCCN1CCC(c2noc3cc(F)ccc23)CC1)c1cccs1"
observable = "inhibition at 1 µM"
recordedmeasurement = 89

[[record]]
samplesmiles = "O=S(=O)(NCCCCN1CCN(c2nsc3ccccc23)CC1)c1ccc(-c2ccccc2)cc1"
observable = "inhibition at 1 µM"
recordedmeasurement = 64

[[record]]
samplesmiles = "Cc1[nH]c2ccc(Cl)cc2c1C1=CCN(CCCCNS(=O)(=O)c2ccc(F)cc2)CC1"
observable = "inhibition at 1 µM"
recordedmeasurement = 42

[[record]]
samplesmiles = "O=S(=O)(NCCCCN1CCN(c2cccc3c2OCCO3)CC1)c1ccc2c(c1)OCO2"
observable = "inhibition at 1 µM"
recordedmeasurement = 96

[[record]]
samplesmiles = "O=S(=O)(NCCCN1CCN(c2nsc3ccccc23)CC1)c1ccc(-c2ccccc2)cc1"
observable = "inhibition at 1 µM"
recordedmeasurement = 100

[[record]]
samplesmiles = "COc1cccc(S(=O)(=O)NCCCCN2CCC(c3noc4cc(F)ccc34)CC2)c1"
observable = "inhibition at 1 µM"
recordedmeasurement = 99


Kindly review the next compound as well.
Exercise: Name the recorded inhibition at 1 µM for O=S(=O)(NCCCCN1CCC(c2noc3cc(F)ccc23)CC1)c1ccc(C(F)(F)F)cc1 .
Solution: 101

###

Target: serotoninergic 5-HT7 receptor (Homo sapiens)
Assay: Cellular functional assay, serotoninergic 5-HT7 receptor (agonism/antagonism)
Type: cell-based
Conditions: read-out: 5-HT7-antag. [%]
Below, each entry is listed alongside its reported inhibition at 1 µM.
Returns: string containing the numeric result and its unit.

Use the examples below as a reference point.
[[record]]
samplesmiles = "O=S(=O)(NCCCN1CCC(c2noc3cc(F)ccc23)CC1)c1ccc2cc(Cl)ccc2c1"
assaysystem = "serotoninergic 5-HT7 receptor (Homo sapiens)"
recordedmeasurement = "92%"

[[record]]
samplesmiles = "Cc1cccc(S(=O)(=O)NCCCCN2CCN(c3nsc4ccccc34)CC2)c1"
assaysystem = "serotoninergic 5-HT7 receptor (Homo sapiens)"
recordedmeasurement = "93%"

[[record]]
samplesmiles = "O=S(=O)(NCCCN1CCC(c2noc3cc(F)ccc23)CC1)c1ccc(F)c(Cl)c1"
assaysystem = "serotoninergic 5-HT7 receptor (Homo sapiens)"
recordedmeasurement = "102%"

[[record]]
samplesmiles = "O=S(=O)(NCCCCN1CCN(c2cccc3[nH]ccc23)CC1)c1cc2ccc(Cl)cc2s1"
assaysystem = "serotoninergic 5-HT7 receptor (Homo sapiens)"
recordedmeasurement = "24%"

[[record]]
samplesmiles = "Cc1c(S(=O)(=O)NCCCN2CCC(c3noc4cc(F)ccc34)CC2)sc2ccc(F)cc12"
assaysystem = "serotoninergic 5-HT7 receptor (Homo sapiens)"
recordedmeasurement = "94%"


Exercise: Which inhibition at 1 µM reading was recorded for the compound O=S(=O)(NCCN1CCN(c2nsc3ccccc23)CC1)c1cccc2ccccc12 ?
Solution: 48%

Exercise: // returns reported inhibition at 1 µM for input O=S(=O)(NCCCCN1CCC(c2noc3cc(F)ccc23)CC1)c1csc2ccccc12
Solution: 100%

Exercise: # query: inhibition at 1 µM of entry O=S(=O)(NCCCCN1CCC(c2noc3cc(F)ccc23)CC1)c1cc2ccccc2s1
Solution: 97%

###

Reported inhibition at 1 µM values for a set of compounds
Molecular target: dopaminergic D2 receptor (Homo sapiens)
Sequence (P14416 1-414 isoform P14416-2): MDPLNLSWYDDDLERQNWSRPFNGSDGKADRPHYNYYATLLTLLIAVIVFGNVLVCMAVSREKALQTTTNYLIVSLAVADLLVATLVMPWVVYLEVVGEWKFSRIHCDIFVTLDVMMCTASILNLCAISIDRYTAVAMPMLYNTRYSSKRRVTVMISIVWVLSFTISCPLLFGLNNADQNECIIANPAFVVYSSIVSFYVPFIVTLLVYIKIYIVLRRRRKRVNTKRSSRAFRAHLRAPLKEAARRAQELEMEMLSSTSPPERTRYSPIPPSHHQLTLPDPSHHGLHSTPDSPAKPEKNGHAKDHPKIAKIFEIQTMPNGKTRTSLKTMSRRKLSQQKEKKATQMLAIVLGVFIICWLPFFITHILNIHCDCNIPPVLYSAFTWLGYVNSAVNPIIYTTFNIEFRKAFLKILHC
Test: Binding assay D2S (h), [3H]methyl-spiperone, HEK-293 cells
Parameters: expressed in transfected cells; host or cells: HEK-293 cells
Conditions: read-out: D2 [%]
Returns: string containing the numeric result and its unit.

Exercise: Would you kindly share the measured inhibition at 1 µM for O=S(=O)(NCCCCN1CCN(c2cccc3[nH]ccc23)CC1)c1ccc(F)cc1 [Compound 359] ?
Solution: 96%

###

Target: dopaminergic D3 receptor (Homo sapiens)
Sequence (P35462 whole entry): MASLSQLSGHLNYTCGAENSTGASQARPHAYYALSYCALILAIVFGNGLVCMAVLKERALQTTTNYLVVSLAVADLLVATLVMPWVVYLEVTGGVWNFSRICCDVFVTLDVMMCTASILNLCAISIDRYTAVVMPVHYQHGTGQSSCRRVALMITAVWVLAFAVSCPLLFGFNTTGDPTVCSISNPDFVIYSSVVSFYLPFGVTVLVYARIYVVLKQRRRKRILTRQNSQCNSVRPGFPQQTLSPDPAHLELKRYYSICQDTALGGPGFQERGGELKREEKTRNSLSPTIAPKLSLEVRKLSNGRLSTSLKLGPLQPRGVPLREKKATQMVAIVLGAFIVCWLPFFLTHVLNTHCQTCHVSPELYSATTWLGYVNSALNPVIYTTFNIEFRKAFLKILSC
Assay: Binding assay D3 (h), [3H]methyl-spiperone, CHO cells
Parameters: expressed in transfected cells; host or cells: CHO cells
Conditions: read-out: D3 [%]
observable: inhibition at 1 µM

Exercise: I'm curious: which inhibition at 1 µM was measured for COc1cccc(S(=O)(=O)NCCCCN2CCN(c3nsc4ccccc34)CC2)c1 tested on dopaminergic D3 receptor (Homo sapiens)?
Solution: 89%

Exercise: Tell me reported inhibition at 1 µM for O=S(=O)(NCCCCN1CCN(c2noc3ccccc23)CC1)c1cccc(F)c1 , tested with dopaminergic D3 receptor (Homo sapiens).
Solution: 77%

Exercise: Which inhibition at 1 µM is reported with dopaminergic D3 receptor (Homo sapiens) for this entry: O=S(=O)(NCCCCN1CCN(c2cccc3c2OCCO3)CC1)c1ccc(-c2ccccc2)cc1 ?
Solution: 86%

Exercise: dopaminergic D3 receptor (Homo sapiens) / inhibition at 1 µM / N#Cc1cccc(S(=O)(=O)NCCCCN2CCC(c3noc4cc(F)ccc34)CC2)c1 : value?
Solution: 99%

Exercise: Field: inhibition at 1 µM (dopaminergic D3 receptor (Homo sapiens)). Entry: O=S(=O)(NCCCCN1CCC(c2noc3cc(F)ccc23)CC1)c1ccsc1
Solution: 95%

###

compounds and their reported inhibition at 1 µM
Target: UniProtKB P35462
Assay: Binding assay D3 (h), [3H]methyl-spiperone, CHO cells
Parameters: expressed in transfected cells; host or cells: CHO cells
Conditions: read-out: D3 [%]
Response body: numeric value in %, unit text excluded.

Use the examples below as a reference point.
[[record]]
samplesmiles = "O=S(=O)(NCCCN1CCN(c2cccc3c2OCCO3)CC1)c1ccc(F)cc1"
recordedmeasurement = 70

[[record]]
samplesmiles = "O=S(=O)(NCCCN1CCN(c2nsc3ccccc23)CC1)c1cc2ccc(Cl)cc2s1"
recordedmeasurement = 65

[[record]]
samplesmiles = "O=S(=O)(NCCCCN1CCN(c2cccc3c2OCCO3)CC1)c1ccc2cn[nH]c2c1"
recordedmeasurement = 89

[[record]]
samplesmiles = "O=S(=O)(NCCCCN1CCN(c2noc3ccccc23)CC1)c1ccc(Cl)c(Cl)c1"
recordedmeasurement = 86

[[record]]
samplesmiles = "Cc1[nH]c2ccc(Cl)cc2c1C1=CCN(CCCCNS(=O)(=O)c2cccc(Cl)c2)CC1"
recordedmeasurement = 92


// next item, inhibition at 1 µM requested
Exercise: # input compound: O=S(=O)(NCCCCN1CCN(c2noc3ccccc23)CC1)c1ccc(F)c(Cl)c1 ; wanted: its inhibition at 1 µM
Solution: 69

###

Biological target: serotoninergic 5-HT7 receptor (Homo sapiens)
Assay: Cellular functional assay, serotoninergic 5-HT7 receptor (agonism/antagonism)
Type: cell-based
Details: read-out: 5-HT7-antag. [%]
Returns one of condition met or condition not met; condition met when inhibition at 1 µM is >= 90%.

Check out these entries, answers already filled in.
[[record]]
compound = "O=S(=O)(NCCCCN1CCN(c2nsc3ccccc23)CC1)c1ccc2cc(Cl)ccc2c1 [Compound 61]"
label = "condition not met"

[[record]]
compound = "O=c1[nH]c2cccc(N3CCN(CCCNS(=O)(=O)c4ccc5ccccc5c4)CC3)c2[nH]1 [Compound 424]"
label = "condition not met"


Exercise: Given O=S(=O)(NCCCN1CCC(c2noc3cc(F)ccc23)CC1)c1ccc2cn[nH]c2c1 [Compound 352] , state whether its inhibition at 1 µM is at least 90%.
Solution: condition met

Exercise: # bool: inhibition at 1 µM of O=S(=O)(NCCCCN1CCN(c2nsc3ccccc23)CC1)c1cc2ccc(Cl)cc2s1 [Compound 241] >= 90%
Solution: condition not met

Exercise: Form field: inhibition at 1 µM at least 90%? Entry: O=S(=O)(NCCCCN1CCN(c2noc3ccccc23)CC1)c1ccc2ccccc2c1 [Compound 14]
Solution: condition not met

Exercise: Hello, I need to know if O=c1[nH]c2ccc(S(=O)(=O)NCCCCN3CCN(c4noc5ccccc45)CC3)cc2o1 [Compound 16] has measured inhibition at 1 µM not below 90%. Thanks!
Solution: condition not met

Exercise: Determine whether measured inhibition at 1 µM meets or exceeds 90% for Cc1cccc(S(=O)(=O)NCCCN2CCC(c3noc4cc(F)ccc34)CC2)c1 [Compound 22]
Solution: condition met

###

Target: serotoninergic 5-HT6 receptor (Homo sapiens, UniProt P50406)
Sequence (P50406 whole entry): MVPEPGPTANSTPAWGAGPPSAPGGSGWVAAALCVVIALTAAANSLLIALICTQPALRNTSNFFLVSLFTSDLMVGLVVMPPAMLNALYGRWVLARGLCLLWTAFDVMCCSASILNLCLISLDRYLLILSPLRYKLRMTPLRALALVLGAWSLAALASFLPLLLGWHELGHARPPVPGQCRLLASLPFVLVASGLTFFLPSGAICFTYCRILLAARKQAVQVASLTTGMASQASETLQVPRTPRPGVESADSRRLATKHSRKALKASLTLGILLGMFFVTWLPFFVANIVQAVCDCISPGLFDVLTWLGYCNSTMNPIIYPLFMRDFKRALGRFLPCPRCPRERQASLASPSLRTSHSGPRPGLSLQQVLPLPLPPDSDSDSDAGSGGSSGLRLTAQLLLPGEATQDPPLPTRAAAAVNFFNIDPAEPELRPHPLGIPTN
Assay: Cellular functional assay, serotoninergic 5-HT6 receptor (agonism/antagonism)
Assay type: cell-based
Settings: read-out: 5-HT6-antag. [%]
Quick rule for you: inhibition at 1 µM at 70% or higher means 1 (yes), lower means 0 (no).

Look over these answered cases.
[[record]]
samplesmiles = "O=S(=O)(NCCCCN1CCN(c2noc3ccccc23)CC1)c1c[nH]c2ncccc12"
label = "1 (yes)"

[[record]]
samplesmiles = "N#Cc1cccc(S(=O)(=O)NCCCN2CCC(c3noc4cc(F)ccc34)CC2)c1"
label = "1 (yes)"

[[record]]
samplesmiles = "O=S(=O)(NCCCCN1CCC(c2noc3cc(F)ccc23)CC1)c1ccc2ccccc2c1"
label = "1 (yes)"

[[record]]
samplesmiles = "O=c1[nH]c2ccc(S(=O)(=O)NCCCN3CCN(c4nsc5ccccc45)CC3)cc2o1"
label = "0 (no)"

[[record]]
samplesmiles = "O=S(=O)(NCCCCN1CCN(c2cccc3[nH]ccc23)CC1)c1cccc(F)c1"
label = "0 (no)"

[[record]]
samplesmiles = "O=S(=O)(NCCCN1CCC(c2noc3cc(F)ccc23)CC1)c1ccc2cn[nH]c2c1"
label = "1 (yes)"


Here's the next entry for you.
Exercise: API: above_or_equal(metric=inhibition at 1 µM, cutoff=70%) for item Cc1cccc(S(=O)(=O)NCCCCN2CCN(c3noc4ccccc34)CC2)c1
Solution: 0 (no)
